STUDY TARGET: B. taurus (heart) complex I (Bos taurus, UniProt P03887+P17694+P42026)
Sequence (P03887 whole entry): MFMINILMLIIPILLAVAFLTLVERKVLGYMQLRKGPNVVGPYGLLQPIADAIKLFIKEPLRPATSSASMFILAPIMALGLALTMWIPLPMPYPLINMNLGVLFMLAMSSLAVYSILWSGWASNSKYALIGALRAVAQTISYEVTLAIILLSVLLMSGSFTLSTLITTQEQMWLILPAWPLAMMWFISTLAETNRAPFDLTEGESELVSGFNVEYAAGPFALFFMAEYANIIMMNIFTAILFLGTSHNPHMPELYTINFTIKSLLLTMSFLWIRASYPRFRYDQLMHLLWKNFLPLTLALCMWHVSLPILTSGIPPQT
Sequence (P17694 34-463): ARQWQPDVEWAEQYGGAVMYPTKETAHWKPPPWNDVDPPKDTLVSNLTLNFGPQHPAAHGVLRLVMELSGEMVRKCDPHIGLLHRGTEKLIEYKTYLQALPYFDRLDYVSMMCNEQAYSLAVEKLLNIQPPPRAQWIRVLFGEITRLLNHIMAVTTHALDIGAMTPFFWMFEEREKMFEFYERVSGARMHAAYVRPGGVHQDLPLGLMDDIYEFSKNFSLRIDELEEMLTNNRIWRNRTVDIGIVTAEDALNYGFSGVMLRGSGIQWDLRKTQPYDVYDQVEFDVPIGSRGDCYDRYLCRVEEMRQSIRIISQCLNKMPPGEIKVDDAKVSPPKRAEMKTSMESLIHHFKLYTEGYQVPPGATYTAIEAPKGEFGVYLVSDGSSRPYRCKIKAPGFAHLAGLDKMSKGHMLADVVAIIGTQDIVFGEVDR
Sequence (P42026 38-216): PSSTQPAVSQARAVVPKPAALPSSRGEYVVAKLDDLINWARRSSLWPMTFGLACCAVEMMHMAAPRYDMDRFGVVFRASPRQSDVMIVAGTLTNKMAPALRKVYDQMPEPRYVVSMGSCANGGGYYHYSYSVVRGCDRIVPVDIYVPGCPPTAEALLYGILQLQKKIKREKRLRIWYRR
TEST METHOD NOTES: biochemical
Type: biochemical
ASSAY CONTEXT: Dose 0.0001 µM; read-out: B. taurus mitochondrial complex I activity
Kindly state activity at 0.0001 µM for each of the entries shown.
Hi! Could you send only the number? It should be in %, unit omitted.

Ask: Lookup: activity at 0.0001 µM / B. taurus (heart) complex I (Bos taurus, UniProt P03887+P17694+P42026) / FC(F)(F)c1cccc(OCCCCn2cnc3ccccc32)c1 [Compound 7925004]
Result: 92.5

Ask: Tell me reported activity at 0.0001 µM for Cc1nc2ccccc2n1CCOc1ccccc1 [Compound 5550112] , tested with B. taurus (heart) complex I (Bos taurus, UniProt P03887+P17694+P42026).
Result: 101

Ask: Hello, I am looking for reported activity at 0.0001 µM with B. taurus (heart) complex I (Bos taurus, UniProt P03887+P17694+P42026) for Clc1ccccc1OCCCCn1cnc2ccccc21 [Compound 7925804] . Could you help?
Result: 106

Ask: Query for B. taurus (heart) complex I (Bos taurus, UniProt P03887+P17694+P42026): what activity at 0.0001 µM does the record show for Clc1ccc(OCCn2cnc3ccccc32)c(Cl)c1 [Compound 7221649] ?
Result: 92.5

Ask: Query activity at 0.0001 µM on B. taurus (heart) complex I (Bos taurus, UniProt P03887+P17694+P42026) for Cc1ccc(OCCn2cnc3ccccc32)cc1 [Compound 5671538]
Result: 94.3

Ask: Query the reported activity at 0.0001 µM for B. taurus (heart) complex I (Bos taurus, UniProt P03887+P17694+P42026); item: Cc1ccc(SCCCn2cnc3ccccc32)cc1 [Compound 7926035]
Result: 101

Ask: Lab note: need activity at 0.0001 µM with B. taurus (heart) complex I (Bos taurus, UniProt P03887+P17694+P42026) for entry Clc1ccc(SCCCCn2cnc3ccccc32)cc1 [Compound 7925515] , please look it up.
Result: 102

Ask: Look up activity at 0.0001 µM with B. taurus (heart) complex I (Bos taurus, UniProt P03887+P17694+P42026) for this compound: CCc1cc(OCCn2cnc3ccccc32)ccc1Cl [Compound 7925288]
Result: 89.8

Ask: Value wanted: activity at 0.0001 µM (B. taurus (heart) complex I (Bos taurus, UniProt P03887+P17694+P42026)) of entry CC(C)Oc1cccc(OCCn2cnc3ccccc32)c1 [Compound 7926496]
Result: 89.9

Ask: Write down the reported activity at 0.0001 µM of Cc1nc2ccccc2n1CCOc1ccccc1Cl [Compound 5561642] , test system: B. taurus (heart) complex I (Bos taurus, UniProt P03887+P17694+P42026).
Result: 88.4

Ask: Request - read-out activity at 0.0001 µM | tested on B. taurus (heart) complex I (Bos taurus, UniProt P03887+P17694+P42026) | compound Cc1ccccc1OCCCn1c(C)nc2ccccc21 [Compound 7916923]
Result: 98.7

Ask: I'm curious: which activity at 0.0001 µM was measured for Cc1nc2ccccc2n1Cc1ccc(Cl)c(Cl)c1 [Compound 5655567] tested on B. taurus (heart) complex I (Bos taurus, UniProt P03887+P17694+P42026)?
Result: 91.2

Ask: API: value(readout=activity at 0.0001 µM, system=B. taurus (heart) complex I (Bos taurus, UniProt P03887+P17694+P42026)) for record CCCOc1ccc(Cn2cnc3ccccc32)cc1 [Compound 7355741]
Result: 95.3

Ask: Form: Entry = Cc1cccc(OCCn2c(C)nc3ccccc32)c1 [Compound 6285199] | System = B. taurus (heart) complex I (Bos taurus, UniProt P03887+P17694+P42026) | activity at 0.0001 µM = ____
Result: 98.3

Ask: Entry Nc1nc2ccccc2n1Cc1ccc(Cl)cc1 [Compound 5652765] , system B. taurus (heart) complex I (Bos taurus, UniProt P03887+P17694+P42026): what activity at 0.0001 µM was measured?
Result: 93.5

Ask: Field: activity at 0.0001 µM (B. taurus (heart) complex I (Bos taurus, UniProt P03887+P17694+P42026)). Entry: Brc1ccccc1OCCCCn1cnc2ccccc21 [Compound 7924576]
Result: 104

Ask: Given the entry Cc1ccccc1OCCCCn1cnc2ccccc21 [Compound 7732524] , what activity at 0.0001 µM was observed with B. taurus (heart) complex I (Bos taurus, UniProt P03887+P17694+P42026)?
Result: 96.6

Ask: Request - read-out activity at 0.0001 µM | tested on B. taurus (heart) complex I (Bos taurus, UniProt P03887+P17694+P42026) | compound Clc1ccc(Cn2cnc3ccccc32)cc1Cl [Compound 5571325]
Result: 97.2

Ask: // fetch B. taurus (heart) complex I (Bos taurus, UniProt P03887+P17694+P42026) activity at 0.0001 µM for Nc1nc2ccccc2n1CCOc1ccc(Br)cc1 [Compound 5842535]
Result: 89.6

Ask: Give the reported activity at 0.0001 µM for Cc1ccc(OCCn2cnc3ccccc32)c(C)c1 [Compound 7706808] (system: B. taurus (heart) complex I (Bos taurus, UniProt P03887+P17694+P42026)).
Result: 97.5

Ask: GET /values?readout=activity at 0.0001 µM&system=B. taurus (heart) complex I (Bos taurus, UniProt P03887+P17694+P42026)&item= Clc1ccc(Cn2cnc3ccccc32)c(Cl)c1 [Compound 6750659]
Result: 93.1

Ask: # returns recorded activity at 0.0001 µM (system: B. taurus (heart) complex I (Bos taurus, UniProt P03887+P17694+P42026)) for Cc1ccc(SCCCCn2cnc3ccccc32)cc1 [Compound 7925333]
Result: 90.9

Ask: Kindly state the measured activity at 0.0001 µM obtained for Cc1ccc(C(C)C)c(OCC(O)Cn2cnc3ccccc32)c1 (centres unmarked) [Compound 6093301] with B. taurus (heart) complex I (Bos taurus, UniProt P03887+P17694+P42026).
Result: 94.9

---

Hi there, I'd appreciate the recorded remaining activity at 0.125 µM for every entry that follows.
STUDY TARGET: C. elegans (N2) complex I (NADH:ubiquinone oxidoreductase) (Caenorhabditis elegans, UniProt P24887+Q93873+Q94360)
Sequence (Q94360 17-199): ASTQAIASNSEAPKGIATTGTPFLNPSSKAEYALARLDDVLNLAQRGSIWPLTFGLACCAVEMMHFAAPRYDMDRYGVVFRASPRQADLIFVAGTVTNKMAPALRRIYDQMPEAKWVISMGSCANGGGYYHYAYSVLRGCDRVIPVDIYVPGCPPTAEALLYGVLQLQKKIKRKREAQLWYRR
Sequence (P24887 whole entry): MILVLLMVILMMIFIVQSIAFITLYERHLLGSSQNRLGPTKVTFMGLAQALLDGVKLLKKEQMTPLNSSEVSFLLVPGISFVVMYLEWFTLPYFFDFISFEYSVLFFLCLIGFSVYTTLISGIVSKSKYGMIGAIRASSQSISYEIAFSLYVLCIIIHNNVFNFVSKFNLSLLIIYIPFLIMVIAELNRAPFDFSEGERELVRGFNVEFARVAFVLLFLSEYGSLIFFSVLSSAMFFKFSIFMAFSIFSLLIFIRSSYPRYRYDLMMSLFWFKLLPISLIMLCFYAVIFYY
Sequence (Q93873 31-482): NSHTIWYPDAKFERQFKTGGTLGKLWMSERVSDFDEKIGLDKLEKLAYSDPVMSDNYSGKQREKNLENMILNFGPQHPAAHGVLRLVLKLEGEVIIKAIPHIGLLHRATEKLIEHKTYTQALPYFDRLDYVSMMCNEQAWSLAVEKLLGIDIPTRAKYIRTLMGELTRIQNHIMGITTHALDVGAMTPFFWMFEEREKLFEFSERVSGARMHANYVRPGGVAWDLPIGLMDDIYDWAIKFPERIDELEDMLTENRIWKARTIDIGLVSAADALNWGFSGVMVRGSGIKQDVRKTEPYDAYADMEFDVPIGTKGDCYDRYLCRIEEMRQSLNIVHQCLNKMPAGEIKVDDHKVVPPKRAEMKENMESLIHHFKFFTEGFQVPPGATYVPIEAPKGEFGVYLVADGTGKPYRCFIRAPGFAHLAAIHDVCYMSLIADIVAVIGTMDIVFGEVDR
TEST METHOD NOTES: biochemical
Format: biochemical
ASSAY CONTEXT: 0.125 µM; wild-type C. elegans mitochondria; single replicate; read-out: percent (%) in vitro complex I activity relative to solvent control
Be sure to follow the number with its unit.

Ask: For the compound shown here, COc1cc2c(cc1OC)C(C(C)c1ccc(CC(C)C)cc1)=NCC2 (centres unmarked) , give the reported remaining activity at 0.125 µM.
Result: 88.8%

Ask: Find the recorded remaining activity at 0.125 µM belonging to COc1cc2c(cc1OC)C(/C=C/c1ccc(N(C)C)cc1)=NCC2 and report it.
Result: 103%

Ask: Recorded remaining activity at 0.125 µM for COc1cc2c(cc1OC)C(c1ccc(-c3ccc(Cl)c(Cl)c3)o1)=NCC2 , please?
Result: 96.7%

Ask: Dear colleague, I am looking for the recorded remaining activity at 0.125 µM of the following compound: COC(=O)Nc1nc2ccc(Sc3ccccc3)cc2[nH]1 [fenbendazole, reference compound]
Result: 102%

Ask: Quick one: remaining activity at 0.125 µM for CC(C)Cc1ccc(C(C)c2nc3ccccc3n2C)cc1 (centres unmarked) ?
Result: 95.7%

---

STUDY TARGET: C. elegans (N2) complex I (NADH:ubiquinone oxidoreductase) (Caenorhabditis elegans, UniProt P24887+Q93873+Q94360)
TEST METHOD NOTES: biochemical
Type: biochemical
ASSAY CONTEXT: Dose 0.0005 µM; read-out: C. elegans mitochondrial complex I activity
Consider the following compounds; for each one, report its activity at 0.0005 µM.
All answers are understood in %, so give the number only.

Ask: Fill in the blank: the reported activity at 0.0005 µM of Clc1ccc(SCCCCn2cnc3ccccc32)cc1 is ____.
Result: 89.5

Ask: # get_value(readout='activity at 0.0005 µM', item= Cc1nc2ccccc2n1CCOc1ccccc1Cl )
Result: 94

Ask: I am curious: what activity at 0.0005 µM value has been reported for Brc1ccccc1OCCCCn1cnc2ccccc21 ?
Result: 89.9

Ask: Which measured activity at 0.0005 µM value corresponds to CC(C)Oc1cccc(OCCn2cnc3ccccc32)c1 ?
Result: 92.9
